Test system: H460 cell lines
Method: In vitro cytotoxicity (AlamarBlue) with or without ABT-888, H460
Assay type: cell-based
Study Conditions: Homo sapiens, NCI-H460, read-out: IC50 (μM) Hypoxia
Property Label: IC50 (µM)
Give bare numbers, in µM.

**Q:** Request: IC50, test system H460 cell lines, entry Cn1c(COP(=O)(NCCBr)NCCBr)cnc1[N+](=O)[O-] [TH-302]
**A:** 0.2

---

Test system: A375 cell lines
Method: In vitro cytotoxicity (AlamarBlue) with or without ABT-888, A375
Type: cell-based
Study Conditions: Homo sapiens, A-375, read-out: IC50 (μM) Normoxia
Property Label: IC50 (µM)
Answers are plain numbers, in µM.

**Q:** Request - read-out IC50 | tested on A375 cell lines | compound `Cn1c(COP(=O)(NCCBr)NCCBr)cnc1[N+](=O)[O-]`
**A:** 230

Reference for the values: patent US20140171389A1
